All values here come from PubChem BioAssay (NCI).

# System: A549 NSCLC
# Assay Notes: NCI tumour cell line growth inhibition, 48 h; in the data active = GI50 below about 0.43 µM; inactive = the rest
Outcome codes: 1 (active), -1 (inactive)

C=CC1CC12C(=O)C1OC2(C)C2C(=O)c3cc4ccccc4cc3C(=O)C12 (stereo not given)    -1
Ic1ccc(Nc2nc3nonc3nc2Nc2ccc(I)cc2)cc1    1
Cc1ccc(C(SCC(N)C(=O)O)(c2ccccc2)c2ccc(C)cc2)cc1 (stereo not given)    -1
CC1OC2CC(=O)OC2C2=C1C(=O)c1c(O)cccc1C2=O (stereo not given)    -1
CC(=O)OC1Oc2ccccc2-c2oc(=O)c(-c3cc(=O)oc4cc(O)ccc34)cc21 (stereo not given)    -1
CC(C)(C)C(=O)OCOP(=O)(OCOC(=O)C(C)(C)C)C1CCCN(O)C1=O (stereo not given)    -1
NC(=NCCCOc1ccc(Cl)cc1)Nc1ccc(C(F)(F)F)cc1    -1
COc1cc(C(=O)c2cc(C)c3[nH]c4ccc(Cl)cc4c3c2C)cc(OC)c1OC    1
CNCCCn1cc(C2=C(c3cn(C)c4ccccc34)C(=O)NC2=O)c2ccccc21    -1
Cc1nc(N)sc1-c1ccnc(Nc2ccc(N3CCOCC3)cc2)n1    -1

----------
# Test system: HOP-62 NSCLC
# Assay Notes: NCI tumour cell line growth inhibition, 48 h; in the data active means GI50 below about 0.43 µM; inactive means the rest
Outcome codes: active, inactive

CCC[CH2][Sn]([CH2]CCC)([CH2]CCC)[O]C(=O)CC    active
O=S(=O)([O-])c1ccc2c(c1)-c1nc-2nc2[n-]c(nc3nc(nc4[n-]c(n1)c1ccc(S(=O)(=O)[O-])cc41)-c1cc(S(=O)(=O)[O-])ccc1-3)c1ccc(S(=O)(=O)[O-])cc21.[Cu+2].[Na+]    inactive
C=C(C)[C@@]12OC3(/C=C/C=C/CCCCC)O[C@@H]1[C@@H]1[C@@H]4O[C@]4(CO)[C@@H](O)[C@]4(O)C(=O)C(C)=C[C@H]4[C@@]1(O3)[C@H](C)[C@H]2OC(=O)c1ccccc1    active
Cc1nc(N)sc1-c1ccnc(Nc2ccc(N3CCOCC3)cc2)n1    inactive
CC(=O)OC1Oc2ccccc2-c2oc(=O)c(-c3cc(=O)oc4cc(O)ccc34)cc21 (stereo not drawn)    inactive
C=C(C=O)C1CCC2(C(=O)O)CCC3(C)C(CCC4C5(C)CCC(O)C(C)(C)C5CCC43C)C12 (stereo not drawn)    inactive
O=C(OCc1ccc2cccc(O)c2n1)N1CCN(C(=O)c2cc3cc(F)ccc3[nH]2)CC1    inactive
Oc1ccc(Cl)cc1Cc1cc(Cl)cc(Cl)c1O    inactive

----------
# Test system: SW-620 colon
# Assay Notes: NCI tumour cell line growth inhibition, 48 h; in the data active = GI50 below about 0.43 µM; inactive = the rest
Outcome codes: true for active, false for inactive

COc1ncnc(C2CC2)c1-c1ncc2cnn(Cc3ccc(-c4nc(C(F)(F)F)cn4C(C)C)cc3)c2n1    false
CC(O)C(N=Cc1ccccc1[O-])C(=O)[O-].CC(O)C(N=Cc1ccccc1[O-])C(=O)[O-].[Co+2] (configuration not stated)    false
CC/C(=C(/c1ccc(OCCN(C)C)cc1)c1ccc(OC(=O)CCCCC(=O)c2c(C)[nH]c(/C=C3\N=C(c4ccc[nH]4)C=C3OC)c2C)cc1)c1ccccc1    false
CCOC(=O)Oc1c(OC)cc(C(=O)NC2CCc3cc(OC)c(OC)c(OC)c3-c3ccc(SC)c(=O)cc32)cc1OC (configuration not stated)    true
COc1ccc(N(C)c2ncnc3occ(C)c23)cc1    true
C=C(F)C(=O)N1CCN(c2nc(OC[C@@H]3CCCN3C)nc3c2CCN(c2cccc4cccc(Cl)c24)C3)C[C@@H]1CC#N    false
COc1ccc(C(=O)c2cc(OC)c(C)c(OC)c2)cc1OC(=O)CCl    true
